Value source: ChEMBL document CHEMBL3393023

target: Cytochrome P450 2C9 (Homo sapiens); assay: Inhibition of CYP2C9 (unknown origin); format: ADME
Sequence (P11712 whole entry): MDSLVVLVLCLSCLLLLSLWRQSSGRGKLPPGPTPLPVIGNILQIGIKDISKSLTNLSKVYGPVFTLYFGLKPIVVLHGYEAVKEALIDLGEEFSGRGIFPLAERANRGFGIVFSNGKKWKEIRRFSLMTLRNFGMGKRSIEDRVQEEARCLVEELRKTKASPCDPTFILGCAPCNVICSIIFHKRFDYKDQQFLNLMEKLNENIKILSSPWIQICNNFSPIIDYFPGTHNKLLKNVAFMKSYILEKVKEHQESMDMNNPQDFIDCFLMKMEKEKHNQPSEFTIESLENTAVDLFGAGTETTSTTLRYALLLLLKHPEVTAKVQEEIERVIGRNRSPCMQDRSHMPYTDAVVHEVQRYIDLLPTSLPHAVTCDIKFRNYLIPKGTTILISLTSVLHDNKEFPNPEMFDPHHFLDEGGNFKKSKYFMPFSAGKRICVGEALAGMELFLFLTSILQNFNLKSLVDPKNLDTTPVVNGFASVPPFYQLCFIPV

- chemicalStructure: "COC(=O)N[C@H](C(=O)N1C[C@@H](C)C[C@H]1c1nc(-c2ccc(-c3ccc(-c4ccc5[nH]c([C@@H]6C[C@H](C)CN6C(=O)[C@@H](NC(=O)OC)C(C)C)nc5c4)cc3)cc2)c[nH]1)C(C)C"
  IC50: "> 30 µM"

---

experiment: Clearance in iv dosed rat; assay type: ADME, organism-based; details: in vivo
propertyMeasured: clearance (mL/min/kg)

- chemicalStructure: "COC(=O)N[C@H](C(=O)N1C[C@@H](C)C[C@H]1c1nc(-c2ccc(-c3ccc(-c4ccc5[nH]c([C@@H]6C[C@H](C)CN6C(=O)[C@@H](NC(=O)OC)C(C)C)nc5c4)cc3)cc2)c[nH]1)C(C)C"
  propertyMeasured: "clearance"
  uom: "mL/min/kg"
  observedMeasurement: 9
